assay: ATG_GATA_CIS: Attagene CIS-FACTORIAL HepG2 Assay for human GATA Binding Protein (AID 2282944); details: HepG2 GATA cis-element reporter, Attagene multiplex mRNA; actives raise or lower the signal
Activity calls are given as the source filed them. The calls were made as follows: active = hit-call score of the fitted dose curve at least 0.9, where 1 is the maximum; inactive = score below 0.9.
Answer with one of the outcomes given here: label 1 = active, label 0 = inactive

Examples from the recorded data:
>>> print(df.to_string())
                                   molecule    group
0  CCOP(=O)(SC(C)CC)N1CCSC1=O (stereo not given)  label 0
1    Cc1ccn2nc(S(=O)(=O)Nc3c(F)cccc3F)nc2n1  label 0
2  CON=C(C(=O)OC)c1ccccc1CON=C(C)c1cccc(C(F)(F)F)c1  label 0
3   CCOP(=S)(OCC)Oc1ccc2c(C)c(Cl)c(=O)oc2c1  label 0
4  CC(C)[C@H](C(=O)O[C@H](C#N)c1cccc(Oc2ccccc2)c1)c1ccc(Cl)cc1  label 0

Data request: What classification did Cc1nn(-c2cc(NS(C)(=O)=O)c(Cl)cc2Cl)c(=O)n1C(F)F end up with in this test?
Data returned: label 0

Data request: Ok, now CN(C)NC(=O)CCC(=O)O
Data returned: label 0

Data request: Please give the result for COc1cccc(C(=O)NN(C(=O)c2cc(C)cc(C)c2)C(C)(C)C)c1C too.
Data returned: label 0

Data request: Queued: CC1(C(=O)Nc2ccc(O)c(Cl)c2Cl)CCCCC1
Data returned: label 0

Data request: And the next one, COP(=O)(OC)SCn1c(=O)oc2cc(Cl)cnc21 ?
Data returned: label 0

Data request: COc1cc(OC)nc(Sc2cccc(Cl)c2C(=O)O)n1 , same question.
Data returned: label 0

Data request: COc1ccc(C(=CC(=O)N2CCOCC2)c2ccc(Cl)cc2)cc1OC , same question.
Data returned: label 0

Data request: How about CCOC(=O)COc1cc(-c2nn(C)c(OC(F)F)c2Cl)c(F)cc1Cl ?
Data returned: label 0

Data request: Now the molecule CNc1cnn(-c2cccc(C(F)(F)F)c2)c(=O)c1Cl
Data returned: label 0

Data request: How about O=c1ccc(=O)[nH][nH]1 ?
Data returned: label 0

Data request: Queued: CCC(=O)Nc1ccc(Cl)c(Cl)c1
Data returned: label 0

Data request: Query CC1=NNC(=O)N(/N=C/c2cccnc2)C1 next
Data returned: label 0

Data request: For CCCSP(=O)(OCC)Oc1ccc(Br)cc1Cl (stereo not given) then?
Data returned: label 0

Data request: Similarly, S=C1NCCN1 ?
Data returned: label 0

Data request: Thanks! And CC(COc1ccc(Oc2ccccc2)cc1)Oc1ccccn1 (stereo not given) ?
Data returned: label 0

Data request: What about CC(=NC#N)N(C)Cc1ccc(Cl)nc1 ?
Data returned: label 0

Data request: Thanks! And CNC(=O)ON=C(C)SC ?
Data returned: label 0

Data request: Note, next up: CN1COCN(Cc2cnc(Cl)s2)C1=N[N+](=O)[O-]
Data returned: label 0

Data request: Then CCOP(=S)(Oc1cnc(C(C)(C)C)nc1)OC(C)C (stereo not given) ?
Data returned: label 0

Data request: How about this molecule: C[N+]1(C)CCCCC1
Data returned: label 0
